These data points were gathered from the Human Domainome abundance scans (Beltran et al. 2025).

B1: Storkhead-box protein 2, residues 64 to 141; numbered along this chain, Q9P2F5 (parent)
chain: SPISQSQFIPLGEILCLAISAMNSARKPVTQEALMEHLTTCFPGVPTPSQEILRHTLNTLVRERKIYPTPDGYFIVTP

Variants of: B1
Assay Details: abundance fitness (aPCA) (normalised: wild type 0, dead -1); higher = more abundant; growth selection in yeast, the domain comes from the species named
Stated Conditions: Homo sapiens
Each record's class is read off its abundance fitness using these ranges: band 1: < -0.2; band 2: ≥ -0.2 and < -0.03; band 3: ≥ -0.03

# Sequence Code, Assigned Class
measured = [
    ("SPISQSQFIPLGEILCLAISAMNSARKPVTQEALMEHLTTCFPGVPTPSQEILRHTLNTLVRERKIYPTPDWYFIVTP [G72W]", "band 1"),
]

Record SPISQSQFIPLGEILCLAISAMNSARKPVTQEALMEHLTTCFPGVPTPSQEILRHTLNTLVRERHIYPTPDGYFIVTP [K65H] — which class?
band 3

SPISQSQFIPLGEILCLAISAMNSARKPVTQEALMEHLTTCFPGVPTPKQEILRHTLNTLVRERKIYPTPDGYFIVTP [S49K] ?
band 2

SPISQSQFIPLGEILCLAISAMNSARKPVTQEALMEHLTTCPPGVPTPSQEILRHTLNTLVRERKIYPTPDGYFIVTP [F42P] ?
band 2

SPISQSQFIPLGEILCLAISAMNSARKPVTQEALMEHLTTCFPGVPTPSQEILRHTLNTLVRERKIYPPPDGYFIVTP [T69P] ?
band 1

SPISQSQFYPLGEILCLAISAMNSARKPVTQEALMEHLTTCFPGVPTPSQEILRHTLNTLVRERKIYPTPDGYFIVTP [I9Y] ?
band 2

SPISQSQGIPLGEILCLAISAMNSARKPVTQEALMEHLTTCFPGVPTPSQEILRHTLNTLVRERKIYPTPDGYFIVTP [F8G] ?
band 2

SPISQSQFIPLGEILCLAISAMNSARKPVTQEALMEHLATCFPGVPTPSQEILRHTLNTLVRERKIYPTPDGYFIVTP [T39A] ?
band 3

SPISQSQFIPLGEILCLAISAMNSARKPVTQEALMEHLTTCFPGVPTPSQEILRHTLNTLVRERKILPTPDGYFIVTP [Y67L] ?
band 3

SPISQSQHIPLGEILCLAISAMNSARKPVTQEALMEHLTTCFPGVPTPSQEILRHTLNTLVRERKIYPTPDGYFIVTP [F8H] ?
band 3

SPISQSQFIPLGEILCLAISAMNSARKPVTQEALMEHLTTCFPGVPTNSQEILRHTLNTLVRERKIYPTPDGYFIVTP [P48N] ?
band 1
